Measured pEC50 of individual entries
# measurement-target: human M2 receptor (Homo sapiens, UniProt P08172)
# Sequence (P08172 whole entry): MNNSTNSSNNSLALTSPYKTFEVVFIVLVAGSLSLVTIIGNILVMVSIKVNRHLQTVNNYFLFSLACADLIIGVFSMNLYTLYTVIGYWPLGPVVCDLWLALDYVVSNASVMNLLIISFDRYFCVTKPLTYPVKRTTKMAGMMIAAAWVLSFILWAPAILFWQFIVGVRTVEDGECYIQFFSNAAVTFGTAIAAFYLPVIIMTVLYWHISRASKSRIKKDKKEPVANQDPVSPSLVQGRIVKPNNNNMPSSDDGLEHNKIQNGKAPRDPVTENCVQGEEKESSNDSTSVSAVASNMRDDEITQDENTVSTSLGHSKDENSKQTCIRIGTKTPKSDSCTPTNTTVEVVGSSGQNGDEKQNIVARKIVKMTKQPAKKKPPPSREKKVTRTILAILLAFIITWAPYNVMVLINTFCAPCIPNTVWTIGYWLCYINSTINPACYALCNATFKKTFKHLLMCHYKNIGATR
# applied-conditions: Receptor activity EC50, allosteric potency at EC20 acetylcholine; M2-GIRK1/4 reporter cells; in some cases mean of two or more determinations
// pEC50: -log10(molar conc.)

Please report the recorded pEC50 for O=C(NC(C(F)(F)F)C(F)(F)F)c1cn(-c2c(F)cc(F)cc2F)c2nc(N3C[C@@H](O)CC3=O)ccc2c1=O [Example 555] .
8.00

* * *

# measurement-target: human M2 receptor (Homo sapiens, UniProt P08172)
# applied-conditions: Receptor activity EC50, M2-GIRK1/4 activation test, acetylcholine at EC20; allosteric potency; in some cases mean values from two or more determinations
Measured EC50 of individual entries
Number only, in nM; omit the unit.

molecule	EC50, nM
O=C(NC12CC(C(F)(F)F)(C1)C2)c1cn(-c2c(F)cc(F)cc2F)c2nc(N3C[C@@H](O)[C@H](O)C3)ccc2c1=O [Example 371]	18
CCC(NC(=O)c1cn(-c2ccc(F)cc2F)c2nc(N3CCC(F)(F)C3)ccc2c1=O)C(F)(F)F (racemic) [Example 74]	58
O=C(NC12CC3CC(CC(C3)C1)C2)c1cn(-c2ccc(F)cc2F)c2nc(N3CC[C@@H](F)C3)ccc2c1=O [Example 72]	53

The record that follows has no EC50 shown yet.
Please report the recorded EC50 for O=C(NC12CC(F)(C1)C2)c1cn(-c2c(F)cc(F)cc2F)c2nc(N3C[C@@H](O)[C@H](O)C3)ccc2c1=O [Example 368] .
91

* * *

# measurement-target: human M2 receptor (Homo sapiens, UniProt P08172)
# applied-conditions: read-out: Efficiency, boosting of the acetylcholine effect at EC20 acetylcholine concentration; M2-GIRK1/4 reporter cells
property: Emax (%)
Number only, in %; omit the unit.

Please report the recorded Emax for "CC[C@H](NC(=O)c1cn(-c2c(F)cc(F)cc2F)c2nc(N3CC(CO)(CO)C3)ccc2c1=O)C(F)(F)F" .
88.5

Please report the recorded Emax for O=C(Nc1c(Cl)cccc1Cl)c1cn(-c2ccc(F)cc2F)c2nc(N3CC4CC4(O)C3)ccc2c1=O (racemic) .
95.5

Please report the recorded Emax for CCC(NC(=O)c1cn(-c2c(F)cc(F)cc2F)c2nc(N3C[C@@H](O)CC3=O)ccc2c1=O)C(C)C (single isomer, unassigned) [Example 485] .
100

Please report the recorded Emax for "CC[C@H](NC(=O)c1cn(-c2c(F)cc(F)cc2F)c2nc(N3CC(F)C3)ccc2c1=O)C(F)(F)F" .
98

Please report the recorded Emax for "CC[C@H](NC(=O)c1cn(-c2c(F)cc(F)cc2F)c2nc(N(C)C[C@@H](C)O)ccc2c1=O)C(F)(F)F" .
99.5

Please report the recorded Emax for "C[C@@H](COC(F)(F)F)NC(=O)c1cn(-c2c(F)cc(F)cc2Cl)c2nc(N3C[C@@H](O)CC3=O)ccc2c1=O" .
100

* * *

Measured Emax of individual entries
# measurement-target: human M2 receptor (Homo sapiens)
# applied-conditions: read-out: Efficiency
Number only, in %; omit the unit.

Please report the recorded Emax for CC[C@H](NC(=O)c1cn(-c2c(F)cc(F)cc2F)c2nc(N3CC4CC4(O)C3)ccc2c1=O)C(F)(F)F (mixture of isomers) .
92

Please report the recorded Emax for "CC[C@@H](NC(=O)c1cn(-c2ccc(F)cc2F)c2nc(N3C[C@@H](O)CC3=O)ccc2c1=O)C(F)(F)F" .
97.3

* * *

# measurement-target: UniProt:P08172
# applied-conditions: read-out: Efficiency, boosting of the acetylcholine effect at EC20 acetylcholine concentration; M2-GIRK1/4 reporter cells
property: Emax (%)
Number only, in %; omit the unit.

Observe how each entry below is paired with its result.
molecule	result-value
CC(C)(C)[C@H](NC(=O)c1cn(-c2c(F)cc(F)cc2F)c2nc(N3C[C@@H](O)CC3=O)ccc2c1=O)C(F)(F)F	100
O=C(NC(CC(F)(F)F)C1CC1)c1cn(-c2c(F)cc(F)cc2F)c2nc(N3C[C@@H](O)[C@H](O)C3)ccc2c1=O (single isomer, unassigned) [Example 439]	100
CC(C)(C)NC(=O)c1cn(-c2c(F)cc(F)cc2F)c2nc(N3C[C@@H](O)CC3=O)ccc2c1=O	100
COC(=O)N1CCN(c2ccc3c(=O)c(C(=O)Nc4c(Cl)cccc4Cl)cn(-c4c(F)cc(F)cc4F)c3n2)CC1	89.5
O=C(N[C@@H](C1CC1)C(F)(F)F)c1cn(-c2c(F)cc(F)cc2F)c2nc(N3CCCC[C@@H]3CO)ccc2c1=O	88

Please report the recorded Emax for "CC[C@H](NC(=O)c1cn(-c2c(Cl)cc(F)cc2Cl)c2nc(N3CCNC3=O)ccc2c1=O)C(F)(F)F" .
84

Please report the recorded Emax for "CC(C)C[C@H](NC(=O)c1cn(-c2c(F)cc(F)cc2F)c2nc(N3CCNC3=O)ccc2c1=O)C(F)(F)F" .
100

Please report the recorded Emax for "O=C(Nc1c(Cl)cccc1Cl)c1cn(-c2ccc(F)cc2F)c2nc(N3C[C@@H](O)[C@@H](O)C3)ccc2c1=O" .
95

Please report the recorded Emax for CC[C@@H](NC(=O)c1cn(-c2ccc(F)cc2F)c2nc(N3C(=O)CC(O)C3C)ccc2c1=O)C(F)(F)F (stereo partly shown) .
91.3

Please report the recorded Emax for "CC(C)C[C@@H](NC(=O)c1cn(-c2c(F)cc(F)cc2F)c2nc(N3C[C@@H](O)[C@H](O)C3)ccc2c1=O)C(F)(F)F" .
98

Please report the recorded Emax for CC(C)C(NC(=O)c1cn(-c2c(F)cc(F)cc2F)c2nc(N3C[C@@H](O)[C@H](O)C3)ccc2c1=O)C(F)(F)F (mixture of isomers) [Example 552] .
96

Please report the recorded Emax for "C[C@@H](NC(=O)c1cn(-c2c(F)cc(F)cc2F)c2nc(N3C[C@@H](O)[C@H](O)C3)ccc2c1=O)C1CC1" .
98.5

Please report the recorded Emax for CC[C@H](NC(=O)c1cn(-c2c(F)cc(F)cc2Cl)c2nc(N3C[C@@H](O)[C@H](O)C3)ccc2c1=O)C(F)(F)F [Example 566] .
96.5

Please report the recorded Emax for "O=C(NC12CC(C1)C2)c1cn(-c2c(F)cc(F)cc2Cl)c2nc(N3C[C@@H](O)[C@H](O)C3)ccc2c1=O" .
97.5

Please report the recorded Emax for CC(C)(CC(F)(F)F)NC(=O)c1cn(-c2c(F)cc(F)cc2F)c2nc(N3CC(O)C4(CC4)C3)ccc2c1=O (racemic) [Example 569] .
100

Please report the recorded Emax for CCC(NC(=O)c1cn(-c2ccc(F)cc2F)c2nc(N3C[C@@H](O)CC3=O)ccc2c1=O)C(F)(F)C(F)(F)F (single isomer, unassigned) [Example 557] .
100

Please report the recorded Emax for "O=C(NC(C(F)(F)F)C(F)(F)F)c1cn(-c2c(F)cc(F)cc2F)c2nc(N3C[C@@H](O)CC3=O)ccc2c1=O" .
100

Please report the recorded Emax for CC(C)C(NC(=O)c1cn(-c2c(F)cc(F)cc2F)c2nc(N3C[C@@H](O)CC3=O)ccc2c1=O)C(F)(F)F (mixture of isomers) [Example 526] .
100

Please report the recorded Emax for "O=C(N[C@@H](C1CC1)C(F)(F)F)c1cn(-c2c(F)cc(F)cc2F)c2nc(N3CCCNC3=O)ccc2c1=O" .
93.5

Please report the recorded Emax for CC(NC(=O)c1cn(-c2ccc(F)cc2F)c2nc(N3C[C@@H](O)CC3=O)ccc2c1=O)C(F)(F)C(F)(F)F (single isomer, unassigned) [Example 623] .
97

Please report the recorded Emax for "O=C(NC1(C(F)(F)F)CCC1)c1cn(-c2c(F)cc(F)cc2F)c2nc(N3C[C@@H](O)CC3=O)ccc2c1=O" .
99.3

Please report the recorded Emax for "CC[C@H](NC(=O)c1cn(-c2c(F)cc(F)cc2F)c2nc(N3CCC(CO)(CO)CC3)ccc2c1=O)C(F)(F)F" .
100

Please report the recorded Emax for "COC(=O)[C@H]1CN(c2ccc3c(=O)c(C(=O)N[C@@H](C4CC4)C(F)(F)F)cn(-c4c(F)cc(F)cc4F)c3n2)C(=O)O1" .
84.9

Please report the recorded Emax for CC[C@H](NC(=O)c1cn(-c2c(F)cc(F)cc2Cl)c2nc(N3C[C@@H](O)[C@H](O)C3)ccc2c1=O)C(F)(F)F (single isomer, unassigned) [Example 567] .
80

Please report the recorded Emax for "CC1(NC(=O)c2cn(-c3c(F)cc(F)cc3F)c3nc(N4C[C@@H](O)[C@H](O)C4)ccc3c2=O)CC(F)(F)C1" .
98

* * *

# measurement-target: human M2 receptor (Homo sapiens)
# Assay type: cell-based
# applied-conditions: shift in the acetylcholine dose-response curve (Allosteric EC50 shift, GraphPad PRISM); α >1 = positive cooperativity
Lab note: anything with Cooperativity (alpha factor) below 20 is marked true (1); values at 20 or higher are marked false (0).

compound	group-label
CC[C@@H](NC(=O)c1cn(-c2ccc(F)cc2F)c2nc(N3CC(O)C3)ccc2c1=O)C(F)(F)F	true (1)
CC[C@H](NC(=O)c1cn(-c2ccc(F)cc2F)c2nc(N3C[C@H](O)CC3=O)ccc2c1=O)C(F)(F)F	false (0)
CC(C)CC(NC(=O)c1cn(-c2ccc(F)cc2F)c2nc(N(C)CCF)ccc2c1=O)C(F)(F)F (racemic)	true (1)
CCC(NC(=O)c1cn(-c2ccc(F)cc2F)c2nc(NCCF)ccc2c1=O)C(F)(F)F (racemic)	false (0)
O=C(N[C@H](C1CC1)C(F)(F)F)c1cn(-c2ccc(F)cc2F)c2nc(N3C[C@@H](O)CC3=O)ccc2c1=O	false (0)

We next turn to a different compound, shown below.
Please state whether Cooperativity (alpha factor) is below 20 for "O=C(NC12CC3CC(CC(C3)C1)C2)c1cn(-c2ccc(F)cc2F)c2nc(N3CCC(O)(O)[C@H](F)C3)ccc2c1=O"
false (0)
